- target desc: human TRPA1 (Homo sapiens (Human))
- Sequence (O75762 whole entry): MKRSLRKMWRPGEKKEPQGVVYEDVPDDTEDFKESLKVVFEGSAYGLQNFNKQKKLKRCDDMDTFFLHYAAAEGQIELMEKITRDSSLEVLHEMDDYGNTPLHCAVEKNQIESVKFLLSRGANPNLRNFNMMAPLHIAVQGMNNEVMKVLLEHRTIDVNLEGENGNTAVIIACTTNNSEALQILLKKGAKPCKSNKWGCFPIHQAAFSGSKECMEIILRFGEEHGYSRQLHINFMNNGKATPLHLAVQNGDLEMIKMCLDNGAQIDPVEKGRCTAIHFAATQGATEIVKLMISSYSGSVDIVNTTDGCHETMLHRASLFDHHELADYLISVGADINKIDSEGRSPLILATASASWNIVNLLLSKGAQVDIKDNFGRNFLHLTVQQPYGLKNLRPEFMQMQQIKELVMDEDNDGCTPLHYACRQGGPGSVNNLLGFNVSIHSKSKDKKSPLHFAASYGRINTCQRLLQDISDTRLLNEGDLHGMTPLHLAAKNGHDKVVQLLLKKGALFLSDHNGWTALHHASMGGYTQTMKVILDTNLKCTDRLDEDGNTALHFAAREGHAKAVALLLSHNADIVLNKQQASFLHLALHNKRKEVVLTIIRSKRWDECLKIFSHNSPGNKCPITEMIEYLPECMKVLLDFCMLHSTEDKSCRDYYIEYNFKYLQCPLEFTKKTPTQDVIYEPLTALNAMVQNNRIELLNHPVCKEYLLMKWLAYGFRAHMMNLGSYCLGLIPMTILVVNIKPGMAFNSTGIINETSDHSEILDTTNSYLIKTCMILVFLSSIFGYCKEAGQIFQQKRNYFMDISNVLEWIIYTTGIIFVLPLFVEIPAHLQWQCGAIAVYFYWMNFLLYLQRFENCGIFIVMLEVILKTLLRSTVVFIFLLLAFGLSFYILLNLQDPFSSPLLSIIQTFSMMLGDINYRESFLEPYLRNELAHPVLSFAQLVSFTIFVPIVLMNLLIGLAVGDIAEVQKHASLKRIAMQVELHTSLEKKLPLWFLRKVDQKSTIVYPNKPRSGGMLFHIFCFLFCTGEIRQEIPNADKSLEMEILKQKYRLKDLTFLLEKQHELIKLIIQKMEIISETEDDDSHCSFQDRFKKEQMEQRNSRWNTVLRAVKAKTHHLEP
- measurement protocol: Measurement of TRPA1 antagonist activity (1): intracellular calcium increase
- Format: cell-based
- settings: 293T cells transfected with human TRPA1 expression plasmid; allylisothiocyanate 20 μM stimulation; intracellular calcium fluorescence; read-out: hTRPA1 IC50
- Procedure: Measurement of TRPA1 Antagonist Activity (1) Human TRPA1 Expression Plasmid […] The 384 well plate was recovered, and the medium was removed. […] After 10 min, allylisothiocyanate (12 μL) was further added at a final concentration of 20 μM, and changes in the relative fluorescence intensity after addition of allylisothiocyanate were measured for 5 min. […]
pIC50: −log10 of the molar value.
readout: pIC50

C[C@H](NS(=O)(=O)c1cc2cc(F)ccc2o1)C(=O)NCc1cc(-c2cnc(C(F)(F)F)nc2)ccn1 [Example 241] = 7.12
O=C(NCc1cccc(-c2cnc(C(F)(F)F)cn2)c1)[C@@H]1CCCN1S(=O)(=O)c1cc2ccccc2o1 [Example 196] = 8.54

(a) C[C@H](NS(=O)(=O)c1cc2cc(F)ccc2o1)C(=O)NCc1cc(-c2ccc(C(F)(F)F)nn2)ccn1 [Example 244]
(b) C[C@H](NS(=O)(=O)c1cc2ccccc2o1)C(=O)NCc1ccnc(-c2ccc(C(F)(F)F)cc2O)c1 [Example 180]
(c) O=C(NCc1ccnc(-c2ccc(OC(F)(F)F)cc2)c1)[C@@H]1CCCN1S(=O)(=O)c1cc2ccccc2o1 [Example 116]
(d) O=C(NCc1cccc(-c2ccc(N3CCCC3)nc2)c1)[C@@H]1CCCN1S(=O)(=O)c1cc2cc(F)ccc2o1 [Example 160]
(e) O=C(NCc1ccnc(-c2cccc(F)c2)c1)[C@@H]1CCCN1S(=O)(=O)c1cc2ccccc2o1 [Example 113]
Sequence the entries by pIC50, beginning with the highest number. Record the ranking as a list of labels in the requested order.
c, d, a, b, e
(c: 8.54, d: 7.72, a: 7.36, b: 7.16, e: 6.92)

src = patent US10626112B2
